Tested on: Wnt/β-catenin pathway
Assay: dual-luciferase TCF/LEF reporter assay, LiCl-activated, HEK293 cells
Format: cell-based
Conditions: Homo sapiens, HEK293; Table 3, values in μM; read-out: IC50
Reported IC50 by item:
Write the number in µM without appending the unit.

>  <COMPOUND>
Cc1c(C(=O)Nc2ccc3ccccc3n2)nnn1-c1ccccc1-c1ccccc1 [YW1180]

>  <IC50 / µM>
52

$$$$
>  <COMPOUND>
Cc1c(C(=O)Nc2ccc3ccccc3n2)nnn1-c1cccc2ccccc12 [YW1151]

>  <IC50 / µM>
4

$$$$
>  <COMPOUND>
Cc1ccccc1-n1nnc(C(=O)Nc2nc(-c3ccccc3)cs2)c1C [YW1183]

>  <IC50 / µM>
22

$$$$
>  <COMPOUND>
Cc1ccc(-n2nnc(C(=O)Nc3cc(C)no3)c2C)cc1 [YW1124]

>  <IC50 / µM>
48

$$$$
>  <COMPOUND>
Cc1c(C(=O)Nc2ccc3ccccc3n2)nnn1-c1ccc(F)cc1[N+](=O)[O-] [YW1171]

>  <IC50 / µM>
5

$$$$

From here, focus on the item given below.
Lookup: Return the recorded IC50 value; entry: Cc1ccc(-n2c(C)cc(C(=O)NCc3ccccc3)c2C)cc1 [YW1104]
Found: 49

====

System: Wnt/β-catenin pathway
Assay: dual-luciferase TCF/LEF reporter assay, LiCl-activated, HEK293 cells
Type: cell-based
Settings: Homo sapiens, HEK293; Table 5; read-out: IC50 (nM) or remaining activity at 1 μM: IC50
OBSERVABLE: IC50 (nM)
Write the number in nM without appending the unit.

>  <SMILES_RECORD>
Cc1ccc(-n2nnc(C(=O)Nc3nc(-c4ccccc4)c(-c4ccccc4)s3)c2C)cc1

>  <ASSAY_TARGET>
Wnt/β-catenin pathway

>  <RECORDED_MEASUREMENT>
1000

$$$$
>  <SMILES_RECORD>
Cc1ccc(-n2nnc(C(=O)Nc3cccc(C)n3)c2C)cc1

>  <ASSAY_TARGET>
Wnt/β-catenin pathway

>  <RECORDED_MEASUREMENT>
273

$$$$

From here, focus on the item given below.
Lookup: Return the recorded IC50 value; entry: "Cc1ccc(-n2nnc(C(=O)Nc3cc(C)no3)c2C)cc1"
Found: 48000

Value source: patent US12378220B2
